Recorded values, source ChEMBL document CHEMBL4513216.

- PROTOCOL: Toxicity liver stage against HepG2, at 10uM
- Type: cell-based
- Design: test concentration 10 uM, cell line HepG2-A16-CD81EGFP
- PARTICULARS: human, HepG2-A16-CD81EGFP cells; read-out: INHIBITION
TEST_READOUT: cytotoxicity at 10 µM

>>> print(df.to_string())
                                   compound  value_reported
0      CCc1ncc(C(=O)NCCn2c(C)cc(C)nc2=O)cn1          -1.75%
1          O=c1nc(SCc2cccnc2)c2c(n1CCO)CCC2            -18%
2        O=C(NCc1nnc2n1CCCCC2)N1CCc2sccc2C1          0.553%
3  CCN(C)C(C(=O)Nc1ccc2c(c1)CCC(=O)N2)c1ccccc1 (configuration not stated)          -1.45%
4   CCc1[nH]ncc1C(=O)N1CCN(c2nccc(OC)n2)CC1          0.296%

Attention now shifts to the item below.
State the recorded cytotoxicity at 10 µM for this entry: O=C(NCc1nnc2n1CCC2)N(Cc1ccc(F)cc1)C1CC1 -5.31%

====

- PROTOCOL: Toxicity liver stage against HepG2, at 10uM
- Assay type: cell-based
- Set-up: test concentration 10 uM, cell line HepG2-A16-CD81EGFP
- PARTICULARS: human, HepG2-A16-CD81EGFP cells; read-out: INHIBITION
Measured cytotoxicity at 10 µM, listed per entry.
Write the number in % without appending the unit.

>>> print(df.to_string())
                                   molecule  u  value_reported
0  Cc1ccc(N2CCC3(CC2)CC(OCC(=O)N(C)C)CO3)nn1 (stereo unspecified)  %           -7.59

Endpoint output: cytotoxicity at 10 µM of OC1(CN2CCCC2)CCCN(c2ncnc3[nH]cnc23)C1 (stereo unspecified) . Value? 11.3

Need cytotoxicity at 10 µM, item COCC(=O)N1C[C@H]2CN(Cc3cccc(F)c3)C(=O)[C@H]2C1 -83.5

Can you share its cytotoxicity at 10 µM? I mean this molecule: O=C(c1cc2c([nH]c1=O)CCC2)N1CCCC1c1ccccc1 (stereo unspecified) -5.76

Would you kindly share the measured cytotoxicity at 10 µM for N#Cc1cccc(CN2C[C@@H]3CN(c4ncccn4)C[C@@H]3C2)c1 ? 8.04

I am curious: what cytotoxicity at 10 µM value has been reported for c1cnn(CC2CCCN2c2ncnc3sccc23)c1 (stereo unspecified) ? 38.1

====

- PROTOCOL: Toxicity liver stage against HepG2, at 10uM
- Assay type: cell-based
- Parameters: test concentration 10 uM, cell line HepG2-A16-CD81EGFP
- PARTICULARS: human, HepG2-A16-CD81EGFP cells; read-out: INHIBITION
Quick reference for cytotoxicity at 10 µM among some compounds
Record the value in %, omitting the unit from your answer.

In [3]: df
Out[3]:
                                   compound           test_readout  u  value_reported
0    CC(=O)N1CCC(c2nc3ccc(NC4CCC4)cn3n2)CC1  cytotoxicity at 10 µM  %            -107
1  COC(=O)CC1CCCCN1CC(=O)Nc1cc(F)ccc1F (stereo not drawn)  cytotoxicity at 10 µM  %            6.55
2  O=c1c2ccccc2nc2n1C(CSc1ccc(Cl)cc1)CN2 (stereo not drawn)  cytotoxicity at 10 µM  %            9.38
3  Cc1nc(CN2C[C@@H]3OCCN(c4ncc(F)cn4)[C@@H]3C2)cs1  cytotoxicity at 10 µM  %           -8.52
4   Cn1nc(C(=O)NCc2ccc(OC3CCCCC3)nc2)ccc1=O  cytotoxicity at 10 µM  %            21.3

cytotoxicity at 10 µM for COC(=O)C(C)CN(Cc1ccccc1)C(=O)CN1CCCNC1=O (stereo not drawn) ? 0.124

What measured cytotoxicity at 10 µM goes with CN(Cc1cccc(C#N)c1)S(=O)(=O)N1CCOCC1 ? 6.95

Consider the compound c1cncc(CN2CCOC(c3ncn4c(C5CC5)cccc34)C2)c1 (stereo not drawn) and give its measured cytotoxicity at 10 µM. 1.79

Item under review: O=c1oc(-c2cccs2)nn1CC1(O)CCCCC1 . Reported cytotoxicity at 10 µM? 8.52

Looking for the measured cytotoxicity at 10 µM of COc1ccc2cc(C(=O)N3CCCCC3Cn3cccn3)[nH]c2c1 (stereo not drawn) , can you help? -9.32

Value lookup for cytotoxicity at 10 µM; key = Cn1cc(C(=O)NC[C@@H]2OC[C@H]3CN(S(C)(=O)=O)CC[C@H]32)cn1 -9.12

Which cytotoxicity at 10 µM is reported for this compound? Cc1nc(Cn2cc(I)cc(C)c2=O)oc1C 0.939

For the compound Cc1nn(CCO)cc1CN1CCCC1c1nc2c(C)cccc2[nH]1 (stereo not drawn) , what cytotoxicity at 10 µM is on record? 3.83

For the compound Cn1nc(COCC2CC2)c2c1CN(CC1CC1)CC2 , what cytotoxicity at 10 µM is on record? 13.8

What value of cytotoxicity at 10 µM has been reported for the following compound? CC(CNC(=O)C1(c2ccc(F)cc2)CC1)CN1CCCC1=O (stereo not drawn) -8.26

What does the record list as cytotoxicity at 10 µM for COc1cccc(N2CCN(Cc3ccc4ccn(C)c4c3)CC2=O)c1 ? 17.3

Requested field: cytotoxicity at 10 µM. Item: CC(C)COCCC(=O)Nc1ccc2oc(=O)n(CCN(C)C)c2c1 -7.59

I am curious: what cytotoxicity at 10 µM value has been reported for CCN1CCC(CC(=O)N[C@H](C(=O)O)c2cccc(F)c2F)CC1 ? -2.62

====

- PROTOCOL: Toxicity liver stage against HepG2, at 10uM
- Type: cell-based
- Set-up: test concentration 10 uM, cell line HepG2-A16-CD81EGFP
- PARTICULARS: human, HepG2-A16-CD81EGFP cells; read-out: INHIBITION
TEST_READOUT: cytotoxicity at 10 µM (%)
# value in %; strip the unit string

Example cases with answers are listed next.
>>> df
                                   compound           test_readout  value_reported
0  O=C(N1CCN(c2ccccc2O)CC1)C1(O)Cc2ccccc2C1  cytotoxicity at 10 µM          0.0894
1     CSc1nccn1-c1cccc(C(=O)NCCCN2CCOCC2)c1  cytotoxicity at 10 µM           -4.74
2  Cc1noc(C)c1CN1CC[C@@H]2O[C@@H](COCC(C)C)CC[C@@H]21  cytotoxicity at 10 µM          -0.125
3  CN1CCN(c2ncnc3c2c(C(=O)NC2CC2)c2ccccn23)CC1  cytotoxicity at 10 µM            3.34
4  CN(C)CC1CN(Cc2coc(-c3ccccc3)n2)CCO1 (stereo not drawn)  cytotoxicity at 10 µM           -10.8
5   CCOC(=O)c1nc(CN2CCC(NC(=O)C(C)C)CC2)cs1  cytotoxicity at 10 µM           -2.98
6  CCCS(=O)(=O)N1CCC2(CN(c3ccsc3)C(=O)CN2C)C1 (stereo not drawn)  cytotoxicity at 10 µM           -21.1
7          COc1ccc(Cl)cc1CCNC(=O)NCc1ncnn1C  cytotoxicity at 10 µM            2.06
8              Cc1ccc(CCC(=O)N2CCOCC2)cc1Cl  cytotoxicity at 10 µM            12.3
9        O=S(=O)(CCc1ccccc1)Cc1nc(C2CC2)no1  cytotoxicity at 10 µM            1.03

Any idea what its cytotoxicity at 10 µM is? The compound is c1ccc(C(CC2CN(Cc3c[nH]cn3)CCO2)c2ccccc2)cc1 (stereo not drawn) -5.54

====

- PROTOCOL: Toxicity liver stage against HepG2, at 10uM
- Format: cell-based
- Parameters: test concentration 10 uM, cell line HepG2-A16-CD81EGFP
- PARTICULARS: human, HepG2-A16-CD81EGFP cells; read-out: INHIBITION
cytotoxicity at 10 µM values by entry
The figure you give is taken to be in %; do not add the unit.

>>> df
                                   compound           test_readout  value_reported
0  Oc1nc(N2CCOCC2)nc2c1CCN(Cc1ccc(F)cc1)CC2  cytotoxicity at 10 µM           -4.14
1    CN(C)C1CCN(C(=O)NCc2ccccc2Cn2cncn2)CC1  cytotoxicity at 10 µM           -8.15
2    CNS(=O)(=O)CC(=O)N(C1CC1)C1Cc2ccccc2C1  cytotoxicity at 10 µM            3.45
3  O=C(c1ccoc1)N1CCC2(CC1)COC(COCc1ccccn1)C2 (stereo unspecified)  cytotoxicity at 10 µM            -138
4          Cc1nc(NCc2ccccn2)c2c(n1)c(C)nn2C  cytotoxicity at 10 µM           -1.02

Need cytotoxicity at 10 µM, item Cc1cnc(N2CCn3cc(CNC(=O)CC4CC4)nc3C2)nc1 12.3
